The origin of these recorded values is paper PMC4494852.

// values below are reported S (slope of the trend line RM vs φ)
test: Lipophilicity by reversed-phase TLC on RP-18 WF254s plates with standardization; settings: dioxane/water

Q. Suppose we examine the compound Cc1cc(=O)oc2cc(O)ccc12 [Compound 8, 7-hydroxy-4-methylcoumarin] ; what S (slope of the trend line RM vs φ) value has been reported?
A. 2.2314

Q. Try CC(=O)c1c(C)cc2oc(=O)cc(C)c2c1O [Compound 3, 6-acetyl-5-hydroxy-4,7-dimethylcoumarin] next.
A. 4.1018

Q. Try O=C1Nc2ccccc2C1=O [Isatine, isatine, reference compound] next.
A. 1.2132

Q. Try c1ccc(Cc2ccccc2)cc1 [Diphenylmethane, diphenylmethane, reference compound] next.
A. 5.0853
